The values you see were collected from ChEMBL document CHEMBL6092171.

# Test details: Apparent clearance during terminal phase in Sprague-Dawley rat at 5 mg/kg, po measured upto 24 hrs by LC-MS/MS analysis
# Type: ADME, organism-based
# Condition summary: in vivo
Property label: CL/F
Quote the value and follow it with the unit of measurement.

Output CL/F of COc1cc(C(CC(=O)O)c2cccc3c2CCN(C(=O)c2ccc(OC(C)C)cc2Cl)C3)cc2nnn(C)c12 (stereo unspecified)
383 mL/min/kg

====

# Test details: Tmax in Sprague-Dawley rat at 5 mg/kg, po measured upto 24 hrs by LC-MS/MS analysis
# Type: ADME, organism-based
# Condition summary: in vivo
Property label: Tmax
State the value, then name its unit.

Look up and state reported Tmax for COc1cc(C(CC(=O)O)c2cccc3c2CCN(C(=O)c2ccc(OC(C)C)cc2Cl)C3)cc2nnn(C)c12 (stereo unspecified)
17.4 min
